For each entry below, report its GI50 value.
# Test system: MDA-N
# assayExplanation: NCI tumour cell line growth inhibition, 48 h
Calls of active or inactive are those of the source. Rule as the data show it: active = GI50 up to about 1.1 µM and inactive = higher.

Task: Form field: reported GI50 of "C/N=c1\sc2nc(C#N)c(C#N)nc2n1C"
Output: 22.4 µM (inactive)

Task: Form field: reported GI50 of "O=CN(O)CC(=O)O"
Output: > 100 µM (inactive)

Task: Form field: reported GI50 of "CN(Cc1cnc2nc(N)nc(N)c2n1)c1ccc(C(=O)NCS(=O)(=O)O)cc1"
Output: 63.1 µM (inactive)

Task: Form field: reported GI50 of "CN(C(=O)CC(=O)CP(=O)(c1ccccc1)c1ccccc1)c1ccccc1"
Output: > 100 µM (inactive)

Task: Form field: reported GI50 of "O=C(CC(=O)c1ccccc1NC1=Cc2ccccc2C(=O)C1=O)C(=O)NC1=C(Cl)C(=O)c2ccccc2C1=O"
Output: 1.75 µM (inactive)

Task: Form field: reported GI50 of "Cc1cccc(C(C)C)c1NC(=O)C(=O)CC(=O)c1sc(Nc2ccccc2Cl)nc1C"
Output: 9.79 µM (inactive)

Task: Form field: reported GI50 of "CC(=O)C(=N\Nc1ccc(Cl)cc1)/C(C)=N/c1ccc(C)cc1"
Output: 31.9 µM (inactive)

Task: Form field: reported GI50 of C[N+]1(CCC(=O)c2ccco2)CC2CCC(CC2)C1 (stereo unspecified)
Output: > 100 µM (inactive)

Task: Form field: reported GI50 of "c1cc2nsnc2c2c[nH]cc12"
Output: 71.4 µM (inactive)

Task: Form field: reported GI50 of "COc1cc2c(c3c1c(=O)c1ccccc1n3C)C=CC1(CCCCC1)O2"
Output: 2.96 µM (inactive)

Task: Form field: reported GI50 of COc1cc(C2c3cccc4cccc(c34)C3CCC(=O)N32)cc(O)c1O (stereo unspecified)
Output: 22.3 µM (inactive)

---

# System: MCF7
# assayExplanation: NCI tumour cell line growth inhibition, 48 h
The source made the active and inactive calls. No stated cut-off is given here; in the data, active = GI50 up to about 1.1 µM and inactive = higher.
measuredAttribute: GI50

Task: Form field: reported GI50 of "c1cc2nsnc2c2c[nH]cc12"
Output: 34.7 µM (inactive)

Task: Form field: reported GI50 of "COc1ccc(C(=C2C(=O)OC(=O)C2=C(C)C)c2ccc(OC)cc2)cc1"
Output: > 100 µM (inactive)

Task: Form field: reported GI50 of CCOC(=O)C(C(=S)Nc1ccccc1)c1nn2c(=O)cc(C)nc2s1 (stereo unspecified)
Output: 19.4 µM (inactive)

Task: Form field: reported GI50 of O=C(NN1C(=O)C(Cl)C1c1ccc(Cl)cc1)c1c(Cl)c(Cl)c(Cl)c(Cl)c1-c1nc2ccccc2[nH]1 (stereo unspecified)
Output: 12.7 µM (inactive)

Task: Form field: reported GI50 of "CNC(=O)CCCN(C)C(=O)CCCCC(=O)N(C)C"
Output: > 62.2 µM (inactive)

Task: Form field: reported GI50 of "COC(=O)c1ccc2c(O)c(O)ccc2c1"
Output: 18.5 µM (inactive)

Task: Form field: reported GI50 of C=C(C)C#CC(O)(C(=O)OC1CCN(C)CC1)C(C)C (stereo unspecified)
Output: > 100 µM (inactive)

Task: Form field: reported GI50 of "CC1(C)N[PH]2(Nc3ccccc3O2)OC1=O"
Output: 22.8 µM (inactive)

Task: Form field: reported GI50 of "C/C(Cl)=N/OC(=O)Nc1ccc(F)c([N+](=O)[O-])c1"
Output: 15.2 µM (inactive)

Task: Form field: reported GI50 of "Nc1c(F)c(F)c2c(c1F)N(CCCCCl)c1ccccc1S2"
Output: > 100 µM (inactive)

Task: Form field: reported GI50 of "CC(=O)c1c(CO[N+](=O)[O-])[n+]([O-])c2ccccc2[n+]1[O-]"
Output: 74.3 µM (inactive)
